Assay: Binding affinity to 5'-FAM-pre-miR-373 (unknown origin) after 4 hrs by fluorescence assay
Details: read-out: Kd
pKd: −log10 of the molar value.

seq.string	pKd
GENTAMICIN	5.18

----------
Test: Inhibition of pre-miR-373 (unknown origin) cleavage assessed as reduction of oncogenic microRNAs biogenesis at 200 uM by measuring fluorescence every minute for 5 hrs using 5'-FAM,3'-dabcyl-pre-miRNA beacons by FRET assay in presence of recombinant Dicer
Activity calls are given as the source filed them. The calls are words filed in the database; no cut-off is given here.

molecule	inhibition
CN[C@@H]1[C@H](O)[C@H](NC)[C@H]2O[C@@]3(O)C(=O)C[C@@H](C)O[C@H]3O[C@@H]2[C@H]1O	inactive
CN(C)[C@@H]1C(O)=C(C(N)=O)C(=O)[C@@]2(O)C(O)=C3C(=O)c4c(O)cccc4[C@@](C)(O)[C@H]3[C@H](O)[C@@H]12	10%
NC[C@H]1O[C@H](O[C@H]2[C@H](O)[C@@H](O)[C@H](N)C[C@@H]2N)[C@H](N)[C@@H](O)[C@@H]1O	10%
CN(C)c1ccc(O)c2c1C[C@H]1C[C@H]3[C@H](N(C)C)C(O)=C(C(N)=O)C(=O)[C@@]3(O)C(O)=C1C2=O	30%
NC[C@@H]1O[C@H](O[C@H]2[C@@H](O)[C@H](O[C@@H]3[C@@H](O)[C@H](N)C[C@H](N)[C@H]3O[C@H]3O[C@H](CN)[C@@H](O)[C@H](O)[C@H]3N)O[C@@H]2CO)[C@H](N)[C@@H](O)[C@@H]1O	60%
NC[C@H]1O[C@H](O[C@H]2[C@H](O)[C@@H](O[C@H]3O[C@H](CO)[C@@H](O)[C@H](N)[C@H]3O)[C@H](N)C[C@@H]2N)[C@H](N)[C@@H](O)[C@@H]1O	inactive
CN[C@@H]1[C@@H](O[C@H]2O[C@H](CO)[C@@H](N)[C@H](O)[C@H]2O)OC2C[C@@H](N)[C@@H](O[C@H]3[C@H](O)[C@@H](O)[C@H](N)C[C@@H]3N)OC2[C@@H]1O (stereo not given in full)	60%
C[C@H]1c2cccc(O)c2C(=O)C2=C(O)[C@]3(O)C(=O)C(C(N)=O)=C(O)[C@@H](N(C)C)[C@@H]3[C@@H](O)[C@@H]21	20%
CN[C@@H]1[C@H](O[C@H]2[C@H](O[C@H]3[C@H](O)[C@@H](O)[C@H](N=C(N)N)[C@@H](O)[C@@H]3N=C(N)N)O[C@@H](C)[C@]2(O)C=O)O[C@@H](CO)[C@H](O)[C@H]1O	inactive
NC[C@@H]1O[C@H](O[C@H]2[C@@H](O)[C@H](O[C@@H]3[C@@H](O)[C@H](N)C[C@H](N)[C@H]3O[C@H]3O[C@H](CO)[C@@H](O)[C@H](O)[C@H]3N)O[C@@H]2CO)[C@H](N)[C@@H](O)[C@@H]1O	10%
